Tested on: SF-539 CNS
Assay: NCI-60 one-dose screen, 48 h (100 = growth as untreated, 0 = no growth, -100 = all killed)
Settings: 10 µM
The panel holds about 83,000 compounds, 20% with a hit somewhere; the sample as a whole holds those more often.
Measured growth, listed per entry for reference.
Please reply with the bare figure in % and do not write the unit itself.

{"molecule": "COc1ccc(OC)c(-c2cc(-c3c[nH]c4ccccc34)nc(N)c2C#N)c1", "observed": -60.3}
{"molecule": "O=c1nc(-c2ccccc2)cc(-c2cc3ccccc3nc2Cl)[nH]1", "observed": -47.4}
{"molecule": "COc1ccc(-c2nc(S(=O)(=O)c3ccccc3)c(S(C)(=O)=O)o2)cc1", "observed": -95.9}
{"molecule": "CC1(c2ccccc2)NC(=O)N(CC(=O)Nc2ccc(C(=O)/C=C/c3ccc(Cl)cc3)cc2)C1=O (configuration not stated)", "observed": -89.3}
{"molecule": "CC(C)(C)Nc1nc2cc(Cl)c(Cl)cc2nc1S(C)(=O)=O", "observed": 47.3}

For the molecule shown here, Cc1cc(=O)oc2cc(OCCCCOc3ccc(/C=C/C(=O)Nc4cccc(Cl)c4)cc3)ccc12 , give the reported growth.
72.6

For the molecule shown here, Cc1ccc2nc3c(nc2c1)c1cc(I)ccc1n3CCN(C)C , give the reported growth.
26.4

For the molecule shown here, O=C1Nc2cc(-c3ccc(NC(=O)c4cccc([N+](=O)[O-])c4)cc3)ccc2/C1=C/c1ccc[nH]1 , give the reported growth.
89.2

---

System: HS 578T breast
Assay: NCI-60 one-dose screen, 48 h
Settings: 10 µM
The panel holds about 83,000 compounds, 20% with a hit somewhere; the sample as a whole holds those more often. Active and inactive are the calls of the source. Rule for the calls: active = growth percent below 10; inactive = the rest.
Answer with one of the outcomes YES (active), NO (inactive)

For orientation, consider the following solved cases.
{"molecule": "O=C(Nc1ccncc1)c1ccc(-n2c(=O)[nH]c3ccccc3c2=O)cc1", "assigned_class": "NO"}
{"molecule": "C=C1CCC2C3(C)COC(c4ccccc4F)OC3CCC2(C)C1C/C=C1/C(=O)OCC1O (stereo not given)", "assigned_class": "YES"}
{"molecule": "N#Cc1c(Cl)nc(SCc2ccc(F)cc2)nc1-c1ccc(F)cc1", "assigned_class": "NO"}

Short answer needed: outcome of this test for O=C1Nc2cc(-c3ccc(NC(=O)c4cccc([N+](=O)[O-])c4)cc3)ccc2/C1=C/c1ccc[nH]1 ?
NO

Short answer needed: outcome of this test for COc1ccc(C(=O)/C=C/c2ccc(Cl)c(C(F)(F)F)c2)cc1S(N)(=O)=O ?
YES

---

System: SF-268 CNS
Assay: NCI-60 one-dose screen, 48 h
Conditions: 10 µM
Compounds without any hit were thinned out: in the full panel of roughly 83,000, 20% have a hit. The source made the active and inactive calls. The calls were made as follows: active = growth percent below 10; inactive = the rest.
Answer with one of the outcomes active, inactive

{"compound": "Nc1nnc(-c2c[nH]c3ncccc23)c(-c2c[nH]c3ccc(Br)cc23)n1", "experimental_target": "SF-268 CNS", "assigned_class": "inactive"}
{"compound": "C=CC(=O)Nc1nc(-c2cccc(NS(=O)(=O)c3cccc4c(N(C)C)cccc34)c2)cs1", "experimental_target": "SF-268 CNS", "assigned_class": "active"}
{"compound": "COc1ccc(Nc2nc(N)n(Cc3cccc(Br)c3)n2)cc1", "experimental_target": "SF-268 CNS", "assigned_class": "inactive"}

Next, consider the following compound.
Short answer needed: outcome of this test for COC(=O)CC1CC1C1Cc2c(nc(N(C)S(C)(=O)=O)nc2C(C)C)-c2ccc(F)cc21 (centres undefined) ?
inactive

FYI, the data here is from PubChem BioAssay (NCI).
